- PROTOCOL TEXT: Blood pressure lowering effect of samples (31)-(38) in SHR rats, same manner as Test example 6 (Table 11)
- Assay type: in vivo, rat
- SETTINGS: oral, n=5, 4 h after administration, mean ± SE, dose mg/kg: 32, 33, 35, 36, 37: 20, 34: 23.4, 38: 32.4
MEASUREMENT NAME: systolic blood pressure
API note: the answer field is a bare number with no unit suffix.

# example entries with known answers
                                   molecule         measurement_name  reported_value
0  N[C@@H](Cc1ccc(O)cc1)C(=O)O [Sample 38, Tyrosine, reference compound]  systolic blood pressure             159
1                      CC(C)C[C@H](N)C(=O)O  systolic blood pressure             162
2                         N[C@@H](CO)C(=O)O  systolic blood pressure             158
3                  N[C@@H](Cc1ccccc1)C(=O)O  systolic blood pressure             165

Sample "N[C@@H](Cc1c[nH]cn1)C(=O)O" ; systolic blood pressure observed: 157
